- tested on: Adenosine kinase (Mycobacterium tuberculosis (strain CDC 1551 / Oshkosh), UniProt P9WID4)
- Sequence (P9WID4 whole entry): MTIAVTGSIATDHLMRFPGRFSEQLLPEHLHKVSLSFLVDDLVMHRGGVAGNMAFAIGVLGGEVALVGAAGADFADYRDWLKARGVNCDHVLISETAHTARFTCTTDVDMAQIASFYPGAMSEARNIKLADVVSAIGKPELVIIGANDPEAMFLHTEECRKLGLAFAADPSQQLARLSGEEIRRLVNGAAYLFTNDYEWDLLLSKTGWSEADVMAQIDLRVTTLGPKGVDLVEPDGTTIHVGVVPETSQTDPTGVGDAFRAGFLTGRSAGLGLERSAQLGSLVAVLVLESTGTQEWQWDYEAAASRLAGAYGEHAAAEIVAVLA
- procedure summary: Inhibition of Mycobacterium tuberculosis ADK using [3H]-adenosine by scintillation counting method
property: IC50 (µM)
Please reply with the bare figure in µM and do not write the unit itself.

OC[C@H]1O[C@@H](n2ccc3c(-c4cn[nH]c4)ncnc32)[C@H](O)[C@@H]1O: 0.67

Next:
Prompt line: What is its IC50 for Adenosine kinase (Mycobacterium tuberculosis (strain CDC 1551 / Oshkosh), UniProt P9WID4)? Entry: "OC[C@H]1O[C@@H](n2ccc3c(-c4c[nH]cn4)ncnc32)[C@H](O)[C@@H]1O"
Response line: 0.78

---

Measured IC50 by item
- tested on: Adenosine kinase (Homo sapiens, UniProt P55263)
- Sequence (P55263 whole entry): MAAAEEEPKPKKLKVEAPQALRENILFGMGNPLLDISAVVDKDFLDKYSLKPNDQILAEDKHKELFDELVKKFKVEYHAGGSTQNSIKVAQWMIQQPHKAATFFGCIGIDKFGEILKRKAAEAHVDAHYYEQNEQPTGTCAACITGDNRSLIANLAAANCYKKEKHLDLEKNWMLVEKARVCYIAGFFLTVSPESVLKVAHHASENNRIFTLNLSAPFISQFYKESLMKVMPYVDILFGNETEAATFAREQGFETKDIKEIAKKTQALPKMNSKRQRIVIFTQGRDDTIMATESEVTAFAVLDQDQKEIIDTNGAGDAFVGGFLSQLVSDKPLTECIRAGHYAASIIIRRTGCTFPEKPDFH

Example results:
OC[C@H]1O[C@@H](n2ccc3c(-c4ccoc4)ncnc32)[C@H](O)[C@@H]1O: > 10 µM
OC[C@H]1O[C@@H](n2ccc3c(-c4cccc5c4oc4ccccc45)ncnc32)[C@H](O)[C@@H]1O: 5.26 µM
OC[C@H]1O[C@@H](n2ccc3c(-c4cc5ccccc5o4)ncnc32)[C@H](O)[C@@H]1O: 2.1 µM
OC[C@H]1O[C@@H](n2ccc3c(-c4ccsc4)ncnc32)[C@H](O)[C@@H]1O: > 10 µM
OC[C@H]1O[C@@H](n2ccc3c(-c4ccn[nH]4)ncnc32)[C@H](O)[C@@H]1O: > 20 µM

Prompt line: Fill blank: measured IC50 of the compound "CCCCCCCCCCCCCCCCCCOP(=O)(O)OC[C@H]1O[C@@H](n2ccc3c(-c4ccoc4)ncnc32)[C@H](O)[C@@H]1O" is ____.
Response line: 5.15 µM

Prompt line: Consider next the compound "OC[C@H]1O[C@@H](n2ccc3c(-c4ccc[se]4)ncnc32)[C@H](O)[C@@H]1O" in the same way.
Response line: > 10 µM

Prompt line: Proceed to "OC[C@H]1O[C@@H](n2cc(Cl)c3c(-c4ccco4)ncnc32)[C@H](O)[C@@H]1O"
Response line: 0.29 µM

Prompt line: Same read-out for "OC[C@H]1O[C@@H](n2ccc3c(-c4cccc5c4Oc4ccccc4S5)ncnc32)[C@H](O)[C@@H]1O" ?
Response line: 3.07 µM

Prompt line: Try the compound "OC[C@H]1O[C@@H](n2ccc3c(-c4cccnc4)ncnc32)[C@H](O)[C@@H]1O"
Response line: > 10 µM

Prompt line: And what about the compound "OC[C@H]1O[C@@H](n2cc(Cl)c3c(-c4ccsc4)ncnc32)[C@H](O)[C@@H]1O" ?
Response line: > 10 µM

Prompt line: Next record, please: "OC[C@H]1O[C@@H](n2cc(F)c3c(-c4cccs4)ncnc32)[C@H](O)[C@@H]1O"
Response line: 1.1 µM

---

- procedure summary: Cytotoxicity against human MRC5 cells after 72 hrs by MTT assay
- Format: cell-based
property: CC50 at 72 h (µM)
Please state the figure in µM; there is no need to write the unit.

Previously resolved entries follow.
OC[C@H]1O[C@@H](n2ccc3c(-c4cc[nH]c4)ncnc32)[C@H](O)[C@@H]1O: 40.1
OC[C@H]1O[C@@H](n2cc(F)c3c(-c4ccc[nH]4)ncnc32)[C@H](O)[C@@H]1O: 44.5
OC[C@H]1O[C@@H](n2ccc3c(-c4cccc5c4sc4ccccc45)ncnc32)[C@H](O)[C@@H]1O: 43.8
CCc1ncnc2c1ccn2[C@@H]1O[C@H](CO)[C@@H](O)[C@H]1O: 50

Then this molecule:
Prompt line: Returns the measured CC50 at 72 h for the input molecule. Input: "OC[C@H]1O[C@@H](n2cc(F)c3c(-c4ccsc4)ncnc32)[C@H](O)[C@@H]1O"
Response line: 50
